Measured z-score accompanies every entry in the list below.
experiment: growth of efflux-deficient E. coli DRC39 – strain DRC39, OD650, 24 h, E. coli filamentation inducers, primary screen (AID 1178);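 note: growth measured as culture turbidity by optical density at 650 nm; test concentration not given here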; conditions: E. coli DRC39 acrAB, higher = more signal, called active from +8 up or from −8 down
METRIC: z-score

molecule=C[N+](C)(C)CCCC[C@@H]1NC(=O)[C@@H]2C[C@H](C(=O)NCCCCCNC(=O)CS)[C@H](c3cccc(OCCO)c3)N2C1=O numeric_result=0.461
molecule=COC(=O)[C@@]1(Cc2ccccc2N=[N+]=[N-])N=C(c2ccc(OCCCO)cc2)O[C@H]1c1ccccc1 numeric_result=0.044
molecule="O=C1C2C=CC(C(O)c3cccc4ccccc34)N(Nc3ccccc3)C2C(=O)N1c1ccccc1 (configuration not stated)" numeric_result=-0.148
molecule="O=C1OCC=C[C@H]2OC34C=CCN(CCN5CCOCC5)C(=O)[C@H]3N(CCCCCO)C(=O)[C@@H]4[C@@H]12 (some centres not stated)" numeric_result=-1.18
molecule="O=C1NC(=O)C2C1C=CC(C(O)c1ccc3c(c1)OCO3)N2Nc1ccc(Cl)cc1Cl (configuration not stated)" numeric_result=-0.145
molecule="C=CCC(OC(C)=O)[C@@H]1[C@@H](N(Cc2ccc(-c3ccccc3)cc2)C(=O)Cc2ccc(OC)cc2)c2cc(OCCCO)ccc2N1C(=O)c1ccc(-c2ccccc2)cc1 (some centres not stated)" numeric_result=1.57
molecule=COCCCNC(=O)[C@@]1(Cc2ccccc2N=[N+]=[N-])N=C(c2ccc(OCCCO)cc2)O[C@H]1c1ccccc1CN=[N+]=[N-] numeric_result=2.63
molecule=COC(=O)[C@@]1(Cc2ccc(OC)cc2)[C@H]2c3cc(C(=O)N(C)C)n(CCF)c3C[C@H]2CN1C(=O)c1ccccc1 numeric_result=0.471
molecule=CC(C)C[C@@H]1NC(=O)[C@@H]2C[C@H](C(=O)NCc3ccc(F)cc3)[C@H](c3ccc(O)cc3)N2C1=O numeric_result=-0.52
molecule=COCCOC(=O)N1C(=O)[C@@]2(c3cc(C#CC4(O)CCCCCC4)ccc31)[C@H](C(=O)NC[C@H](O)c1ccccc1)[C@H]1C(=O)O[C@H](c3ccccc3)[C@H](c3ccccc3)N1[C@@H]2c1ccc(OCCO)cc1 numeric_result=0.608
molecule=COC(=O)[C@]1(Cc2ccccc2CN=[N+]=[N-])N=C(c2ccc(OCCCO)cc2)O[C@@H]1c1ccccc1 numeric_result=0.286
molecule=COCCCNC(=O)[C@@]1(Cc2ccccc2)COC(c2ccc(OCCCO)cc2)=N1 numeric_result=-0.13
molecule=COc1cccc(C[C@H]2C[C@@H](CO[Si](C(C)C)(C(C)C)C(C)C)N3C(=O)[C@]4(C(C)=O)O[C@]23[C@H]2C(=O)N(C)C(=O)[C@H]24)c1 numeric_result=-0.356
molecule=COc1ccc(CCNC(=O)[C@@H]2c3ccccc3C(=O)N(Cc3ccccc3C(F)(F)F)[C@H]2c2ccc(CO)cc2)cc1 numeric_result=0.709
molecule=CC(C)N1C(=O)c2ccccc2[C@](C)(C(=O)O)[C@@H]1c1ccc(CO)cc1 numeric_result=0.0212
molecule=COC(=O)C(CC#Cc1ccc2c(c1)[C@]1(C(=O)N2)[C@H](c2ccc(O)cc2)N2[C@H](c3ccccc3)[C@H](c3ccccc3)OC(=O)[C@H]2[C@@H]1C(N)=O)C(=O)OC numeric_result=1.68
molecule="CC(C)c1ccc(NN2C(C(O)c3cccs3)C=CC3C(=O)N(c4ccccc4)C(=O)C32)cc1 (configuration not stated)" numeric_result=-0.649
molecule=CCOC(=O)C1=CC[C@@H](c2ccc(N(CC)CC)cc2)N(S(=O)(=O)c2ccc(C)cc2)[C@H]1c1ccc([N+](=O)[O-])cc1 numeric_result=-0.19
molecule="CC[C@@H]1[C@@H]2C3C(=O)N(CC)C(=O)C3CC(=O)[C@@H]2[C@H](c2ccc(C)cc2)N1S(=O)(=O)c1ccc(C)cc1 (some centres not stated)" numeric_result=0.694
molecule=C=C(COC)C(=O)CC[C@H](OC(=O)c1ccccc1-c1ccccc1C(=O)O)c1ccc(OCCO)cc1 numeric_result=-0.752
molecule=CN(C)C(=O)[C@]1(Cc2ccccc2N=[N+]=[N-])N=C(c2ccc(OCCCO)cc2)O[C@@H]1c1ccccc1CN=[N+]=[N-] numeric_result=0.804
molecule=COC(=O)[C@@]1(Cc2ccc(F)cc2)[C@H]2c3cc(C(=O)N(C)C)n(Cc4ccc(C)c(F)c4F)c3C[C@H]2CN1C(=O)c1ccccc1 numeric_result=0.171
molecule=COCCOC(=O)N1C(=O)[C@@]2(c3ccccc31)[C@H](c1ccc(OCCO)cc1)N1[C@H](c3ccccc3)[C@H](c3ccccc3)OC(=O)[C@H]1[C@@H]2C(=O)NC[C@H](O)c1ccccc1 numeric_result=0.271
molecule=COc1ccc([Si](C)(C)[C@H]2[C@H](CCO)O[C@@]3(C(=O)N(Cc4cccc(N5CCOC5=O)c4)c4ccccc43)[C@@H]2C)cc1 numeric_result=0.803
molecule=COc1ccc([Si](C)(C)[C@@H]2[C@@H](CCO)O[C@]3(C(=O)N(Cc4cccc(N5C(=O)COc6ccccc65)c4)c4ccccc43)[C@H]2C)cc1 numeric_result=0.775
molecule=COCCCNC(=O)[C@@]1(Cc2ccccc2CN=[N+]=[N-])N=C(c2ccc(OCCCO)cc2)O[C@H]1c1ccccc1N=[N+]=[N-] numeric_result=1.86
molecule=COc1cc2c(cc1OC)CN(C(=O)[C@@H]1[C@H]3C(=O)O[C@H](c4ccccc4)[C@H](c4ccccc4)N3[C@H](c3ccc(O)cc3)[C@@]13C(=O)Nc1ccc(C#CCNC(N)=O)cc13)CC2 numeric_result=0.595
